// data source = PubChem BioAssay (EPA / NIEHS)

read-out: Thrombomodulin, THBD (gene 7056); assay: BSK_CASM3C_Thrombomodulin: BioMAP Diversity Plus: CASM3C Assay for Thrombomodulin Biomarker Activity (AID 2283051); settings: primary human coronary artery smooth muscle cells; actives raise or lower the signal;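 note: thrombomodulin protein level measured by ELISA 24 h after dosing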
Calls of active or inactive are those of the source. Rule for the calls: active = hit-call score of the fitted dose curve at least 0.9, where 1 is the maximum; inactive = score below 0.9.
The reply should name one outcome from yes (1) (active), no (0) (inactive)

compound	group
COC(OC)(C(=O)c1ccccc1)c1ccccc1	no (0)
CCCCCCCCCCCC(=O)N(C)CC(=O)O	no (0)
CCN1CN(CC)CN(CC)C1	no (0)
CCCCCCCCCCCC(C)=O	no (0)
CCCCC1C(=O)N(c2ccccc2)N(c2ccccc2)C1=O	no (0)

Just curious, what result did CC=C(C)C(C)=O get here?
yes (1)

Just curious, what result did CCCCCCC=O get here?
no (0)

Just curious, what result did C=CC(=O)NCOCCCC get here?
no (0)

Just curious, what result did CCNc1nc(NC(C)(C)C)nc(OC)n1 get here?
no (0)

---

target: human Norepinephrine Transporter (NET), SLC6A2 (gene 6530) (UniProt P23975); assay: NVS_TR_hNET: NovaScreen (NVS) Transporter Assay for human Norepinephrine Transporter (NET) (AID 2283377);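 note: cell-free membrane protein extracted from CHO cells expressing human NET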
Sequence (P23975 whole entry, looked up): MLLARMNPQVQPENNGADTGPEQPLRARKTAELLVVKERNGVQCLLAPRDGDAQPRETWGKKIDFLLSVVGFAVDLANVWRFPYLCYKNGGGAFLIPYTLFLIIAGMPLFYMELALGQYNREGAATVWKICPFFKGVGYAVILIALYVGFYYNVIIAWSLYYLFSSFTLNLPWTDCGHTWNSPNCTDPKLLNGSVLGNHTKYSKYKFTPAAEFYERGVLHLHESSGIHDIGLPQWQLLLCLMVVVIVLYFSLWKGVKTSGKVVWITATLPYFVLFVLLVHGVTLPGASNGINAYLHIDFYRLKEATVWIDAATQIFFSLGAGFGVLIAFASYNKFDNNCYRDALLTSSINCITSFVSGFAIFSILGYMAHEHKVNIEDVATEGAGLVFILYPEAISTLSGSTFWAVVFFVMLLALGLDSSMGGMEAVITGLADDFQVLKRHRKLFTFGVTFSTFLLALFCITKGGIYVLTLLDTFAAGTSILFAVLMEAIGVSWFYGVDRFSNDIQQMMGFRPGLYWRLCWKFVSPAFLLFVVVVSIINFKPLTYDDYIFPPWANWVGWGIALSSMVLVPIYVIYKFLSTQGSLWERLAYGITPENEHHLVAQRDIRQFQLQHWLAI
Results filed as inconclusive are left out. The source made the active and inactive calls. Rule for the calls: active = hit-call score of the fitted dose curve at least 0.9, where 1 is the maximum; inconclusive = response in the unintended direction; inactive = score below 0.9.
The reply should name one outcome from true (active), false (inactive)

Solved cases (3 shown):
molecule	group
c1ccc2c(c1)[nH]c1ccccc12	true
CC(C=O)c1ccccc1 (centres undefined)	false
[Cl][Eu]([Cl])[Cl]	true

Now consider the entry below.
Just curious, what result did CC/C=C\C/C=C\C/C=C\CCCCCCCC(=O)OC get here?
true

---

target: Nuclear receptor subfamily 1 group I member 2 (Homo sapiens); test: ATG_PXR_TRANS: Attagene TRANS-FACTORIAL HepG2 Assay for human Pregnane X Receptor (PXR) (AID 2283008)
Inconclusive results are not listed. Activity calls are given as the source filed them. How the source made its calls: active means hit-call score of the fitted dose curve at least 0.9, where 1 is the maximum; inconclusive means response in the unintended direction; inactive means score below 0.9.
The reply should name one outcome from active, inactive

Solved cases (5 shown):
compound	group
C=C(C)C(=O)OCCCCCCCCCCCC	inactive
CCCCOCC(C)O (configuration not stated)	inactive
CCNc1nc(NC(C)(C)C)nc(OC)n1	active
CC1CCC(C(C)(C)S)C(=O)C1 (configuration not stated)	active
Cc1cc(C)c(C=O)c(C)c1	active

Just curious, what result did C=C(C)OC(C)=O get here?
inactive

Just curious, what result did CC(=O)/C=C/C1C(C)=CCCC1(C)C (configuration not stated) get here?
active

---

target: bovine Estrogen Receptor (ER), ESR1 (gene 407238); test: NVS_NR_bER: NovaScreen (NVS) Nuclear Receptor Binding Assay for bovine Estrogen Receptor (ER) (AID 2283345);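 note: actives lower the bound radioligand count which means they displace the ER ligand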
Inconclusive results are not listed. Activity calls are given as the source filed them. The calls were made as follows: active = hit-call score of the fitted dose curve at least 0.9, where 1 is the maximum; inconclusive = response in the unintended direction; inactive = score below 0.9.
measuredMetric: AC50

A selection of reference data follows.
COc1ccc(-c2coc3cc(O)cc(O)c3c2=O)cc1 14.6 µM (active)
CC(C)(c1ccccc1)c1ccc(Nc2ccc(C(C)(C)c3ccccc3)cc2)cc1 inactive
C[Si](C)(C)N[Si](C)(C)C inactive
C=CC(=O)OCCCCCCOC(=O)C=C inactive
C=CCCCCCCCCC=O inactive

Now take the following compound into account.
Look up AC50: C=C1C[C@H]2[C@@H]3C=C(C)C4=CC(=O)CC[C@]4(C)[C@H]3CC[C@]2(C)[C@@]1(OC(C)=O)C(C)=O
inactive
